Origin of the recorded values: patent US20260158031A1

Reported pIC50 values are given for each entry in this list.
Target: JAK3 kinase (Homo sapiens, UniProt P52333)
Sequence (P52333 whole entry): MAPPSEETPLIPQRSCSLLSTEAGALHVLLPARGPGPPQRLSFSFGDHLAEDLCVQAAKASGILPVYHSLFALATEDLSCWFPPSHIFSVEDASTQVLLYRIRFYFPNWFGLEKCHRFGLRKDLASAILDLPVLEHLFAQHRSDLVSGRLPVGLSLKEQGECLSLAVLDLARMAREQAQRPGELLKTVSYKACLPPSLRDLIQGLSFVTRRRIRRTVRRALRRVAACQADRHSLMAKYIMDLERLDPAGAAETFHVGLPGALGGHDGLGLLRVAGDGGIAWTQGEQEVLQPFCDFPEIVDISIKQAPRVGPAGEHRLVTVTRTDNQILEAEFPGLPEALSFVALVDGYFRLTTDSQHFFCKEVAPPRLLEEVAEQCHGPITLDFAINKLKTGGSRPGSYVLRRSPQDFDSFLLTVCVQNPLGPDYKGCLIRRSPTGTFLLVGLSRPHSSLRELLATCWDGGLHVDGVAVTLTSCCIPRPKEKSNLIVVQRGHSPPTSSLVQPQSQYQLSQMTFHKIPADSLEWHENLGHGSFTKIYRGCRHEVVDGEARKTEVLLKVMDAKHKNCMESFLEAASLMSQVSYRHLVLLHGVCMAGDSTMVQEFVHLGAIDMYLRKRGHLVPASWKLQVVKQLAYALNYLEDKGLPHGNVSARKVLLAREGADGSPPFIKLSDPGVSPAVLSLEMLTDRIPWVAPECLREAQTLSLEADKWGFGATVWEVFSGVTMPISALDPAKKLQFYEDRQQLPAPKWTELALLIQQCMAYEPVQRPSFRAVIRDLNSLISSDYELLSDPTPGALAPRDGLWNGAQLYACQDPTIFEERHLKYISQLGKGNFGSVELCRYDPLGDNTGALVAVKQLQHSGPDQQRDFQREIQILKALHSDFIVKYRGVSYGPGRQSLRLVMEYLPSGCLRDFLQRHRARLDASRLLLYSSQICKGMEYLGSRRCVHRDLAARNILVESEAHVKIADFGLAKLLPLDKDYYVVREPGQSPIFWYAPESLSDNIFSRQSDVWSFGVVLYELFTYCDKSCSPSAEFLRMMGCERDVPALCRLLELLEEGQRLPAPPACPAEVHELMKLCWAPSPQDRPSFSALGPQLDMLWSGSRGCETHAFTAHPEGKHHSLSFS
Assay: Mobility shift assay, in vitro JAK3 kinase inhibitory activity
Assay type: biochemical
Details: mobility shift assay, Example 136
pIC50: −log10 of the molar value.
reported-endpoint: pIC50

C=CC(=O)N1Cc2c(-c3ccnc4[nH]ccc34)cnn2[C@@H]2CCC[C@@H]21 ... 9.72
C=CC(=O)N1CCCCn2ncc(-c3ccnc4[nH]ccc34)c2C1 ... 8.15
C=CC(=O)N1CCc2[nH]nc(-c3ccnc4[nH]ccc34)c2C1 ... 9.15
C=C(F)C(=O)N1Cc2c(-c3ccnc4[nH]ccc34)cnn2C[C@H]1CCS(C)(=O)=O ... 8.92
C[C@H]1CN(C(=O)/C=C/CN(C)C)Cc2c(-c3ncnc4[nH]ccc34)cnn21 ... 8.11
C=C(F)C(=O)N1Cc2[nH]nc(-c3ccnc4[nH]ccc34)c2C1 ... 8.15
C=CC(=O)N1Cc2c(-c3ccnc4[nH]ccc34)cnn2[C@H](C)C1 ... 9.70
C=CC(=O)N1Cc2c(-c3ccnc4[nH]ccc34)nn(C)c2C[C@H]1C ... 8.82
C=CC(=O)N1Cc2c(-c3ccnc4[nH]ccc34)n[nH]c2[C@@H]1C ... 8.29
C=CC(=O)N1Cc2c(-c3ccnc4[nH]ccc34)cnn2[C@H]2CCC[C@H]21 ... 9.51

* * *

Target: JAK1 (Homo sapiens, UniProt P23458)
Sequence (P23458 whole entry, species assumed): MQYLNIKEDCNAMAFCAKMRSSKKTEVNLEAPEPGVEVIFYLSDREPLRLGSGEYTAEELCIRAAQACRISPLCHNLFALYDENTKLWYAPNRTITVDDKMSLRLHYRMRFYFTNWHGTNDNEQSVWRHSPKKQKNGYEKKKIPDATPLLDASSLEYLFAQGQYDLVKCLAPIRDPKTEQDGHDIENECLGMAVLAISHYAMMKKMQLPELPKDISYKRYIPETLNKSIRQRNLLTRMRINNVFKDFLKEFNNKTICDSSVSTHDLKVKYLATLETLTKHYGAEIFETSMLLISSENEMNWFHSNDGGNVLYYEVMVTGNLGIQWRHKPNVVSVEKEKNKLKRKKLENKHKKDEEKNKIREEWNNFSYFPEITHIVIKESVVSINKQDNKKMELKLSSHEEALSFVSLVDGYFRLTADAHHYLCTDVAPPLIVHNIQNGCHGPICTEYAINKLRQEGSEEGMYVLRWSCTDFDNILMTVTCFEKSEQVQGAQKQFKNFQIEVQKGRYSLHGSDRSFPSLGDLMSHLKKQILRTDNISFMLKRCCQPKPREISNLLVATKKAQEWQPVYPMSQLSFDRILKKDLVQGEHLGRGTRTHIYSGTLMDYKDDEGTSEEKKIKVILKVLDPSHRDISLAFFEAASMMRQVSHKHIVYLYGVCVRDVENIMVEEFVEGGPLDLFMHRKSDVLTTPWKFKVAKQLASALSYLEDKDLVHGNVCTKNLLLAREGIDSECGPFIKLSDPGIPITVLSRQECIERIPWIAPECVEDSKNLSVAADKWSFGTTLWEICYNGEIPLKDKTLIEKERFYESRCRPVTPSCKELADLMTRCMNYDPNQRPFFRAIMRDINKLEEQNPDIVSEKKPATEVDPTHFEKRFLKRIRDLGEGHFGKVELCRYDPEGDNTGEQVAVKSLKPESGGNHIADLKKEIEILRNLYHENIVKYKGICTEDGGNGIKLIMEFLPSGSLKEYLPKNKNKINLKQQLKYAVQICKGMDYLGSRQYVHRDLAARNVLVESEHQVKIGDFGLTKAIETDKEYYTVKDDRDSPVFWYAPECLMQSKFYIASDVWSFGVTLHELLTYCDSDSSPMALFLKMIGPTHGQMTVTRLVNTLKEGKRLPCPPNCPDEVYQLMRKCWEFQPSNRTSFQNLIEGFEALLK
Assay: Kinase selectivity experiment, mobility shift assay, JAK1
Type: biochemical
Settings: Example 137
reported-endpoint: IC50

C[C@@H]1Cn2ncc(-c3ccnc4[nH]ccc34)c2CN1C(=O)/C=C/CN(C)C [YZ001005] ... > 10 µM

* * *

Molecular target: JAK2 (Homo sapiens, UniProt O60674)
Sequence (O60674 whole entry, species assumed): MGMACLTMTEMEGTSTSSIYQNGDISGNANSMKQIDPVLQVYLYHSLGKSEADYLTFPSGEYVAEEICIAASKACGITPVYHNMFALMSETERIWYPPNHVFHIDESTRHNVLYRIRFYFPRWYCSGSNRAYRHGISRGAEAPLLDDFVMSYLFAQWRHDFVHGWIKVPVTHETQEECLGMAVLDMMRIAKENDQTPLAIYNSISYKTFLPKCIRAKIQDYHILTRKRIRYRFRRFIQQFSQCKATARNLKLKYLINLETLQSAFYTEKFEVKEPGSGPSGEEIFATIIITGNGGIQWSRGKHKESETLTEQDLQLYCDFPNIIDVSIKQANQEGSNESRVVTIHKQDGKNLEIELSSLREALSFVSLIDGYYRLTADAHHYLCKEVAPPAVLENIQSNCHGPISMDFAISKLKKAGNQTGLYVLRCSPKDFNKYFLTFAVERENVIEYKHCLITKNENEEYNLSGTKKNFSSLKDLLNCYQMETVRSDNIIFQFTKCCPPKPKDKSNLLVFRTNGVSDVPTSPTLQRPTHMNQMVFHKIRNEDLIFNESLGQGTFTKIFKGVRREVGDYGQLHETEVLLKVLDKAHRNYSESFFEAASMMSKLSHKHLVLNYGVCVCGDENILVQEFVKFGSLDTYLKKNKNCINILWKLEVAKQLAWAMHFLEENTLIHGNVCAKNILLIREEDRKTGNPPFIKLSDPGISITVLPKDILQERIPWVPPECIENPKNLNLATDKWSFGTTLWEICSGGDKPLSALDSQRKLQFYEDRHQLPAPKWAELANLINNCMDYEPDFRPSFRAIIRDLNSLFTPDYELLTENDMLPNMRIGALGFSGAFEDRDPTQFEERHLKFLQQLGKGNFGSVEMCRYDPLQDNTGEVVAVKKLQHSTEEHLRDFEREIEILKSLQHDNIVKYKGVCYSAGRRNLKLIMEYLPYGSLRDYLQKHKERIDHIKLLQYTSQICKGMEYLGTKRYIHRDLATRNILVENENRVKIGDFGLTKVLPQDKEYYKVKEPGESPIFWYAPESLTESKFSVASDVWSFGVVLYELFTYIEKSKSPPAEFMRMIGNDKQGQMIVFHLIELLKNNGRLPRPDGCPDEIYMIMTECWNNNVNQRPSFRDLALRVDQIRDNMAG
reported-endpoint: IC50

C=CC(=O)N1Cc2c(-c3ccnc4[nH]ccc34)cnn2C[C@H]1C ... > 10 µM
C[C@@H]1Cn2ncc(-c3ccnc4[nH]ccc34)c2CN1C(=O)/C=C/CN(C)C ... > 10 µM

* * *

Test: In vivo exposure detection in SD rats (plasma, LC-MS/MS)
Settings: Sprague-Dawley (SD), rat, po, IG 20 mg/kg, average value
reported-endpoint: Cmax (ng/mL)

C=C(F)C(=O)N1CCc2c(c(-c3ccnc4[nH]ccc34)nn2C)C1 ... 1360

* * *

Assay: In vivo exposure detection in SD rats (plasma, LC-MS/MS)
Conditions: Sprague-Dawley (SD), rat, po, IG 20 mg/kg, average value, read-out: AUCINF_obs
reported-endpoint: AUC(0-inf)

C=C(F)C(=O)N1CCc2c(c(-c3ccnc4[nH]ccc34)nn2C)C1 ... 1900 ng·h/mL

* * *

Assay: In vivo exposure detection in SD rats (plasma, LC-MS/MS)
Settings: Sprague-Dawley (SD), rat, po, IG 20 mg/kg, average value, read-out: MRTINF_obs
reported-endpoint: MRT inf (h)

C=C(F)C(=O)N1CCc2c(c(-c3ccnc4[nH]ccc34)nn2C)C1 ... 1.95
